- Test system: Plasmodium berghei
- method: Screen against P. berghei liver stage (PbLuc), transformed with Luciferase, at 10uM
- Format: functional, HepG2
- experimental-setup: tested at 10 uM
Screen size: about 69,000 compounds; about 8,600 (12%) showed an effect of 50% or more. The sample as a whole holds a higher share of strong results than the screen did.
reported-metric: INHIBITION (%)

molecule: Cc1ccc2c(c1)CCC2NC(=O)N1CCC(C(N)=O)CC1 (stereo not drawn)
tested-system: Plasmodium berghei
unit-of-measurement: %
measured-value: 10.1

molecule: CNC(=O)NC(=O)CCN1CCCC1c1nc(C2CCCCC2)co1 (stereo not drawn)
tested-system: Plasmodium berghei
unit-of-measurement: %
measured-value: -11.3

molecule: CC(C)CN1CCC2(CCN(Cc3nccs3)CC2)C1=O
tested-system: Plasmodium berghei
unit-of-measurement: %
measured-value: 29

molecule: COC1COC2(CCN(Cc3ccc4c(c3)OCO4)CC2)C1 (stereo not drawn)
tested-system: Plasmodium berghei
unit-of-measurement: %
measured-value: -39.3

molecule: Cc1ccccc1CN(CCN(C)C)Cc1ccc(S(C)(=O)=O)cc1
tested-system: Plasmodium berghei
unit-of-measurement: %
measured-value: 40.4

molecule: c1ccc(COC2CCN(Cc3cc4n(n3)CCCNC4)CC2)nc1
tested-system: Plasmodium berghei
unit-of-measurement: %
measured-value: 37.9

molecule: CC(Cn1cccn1)NCc1csc(-c2ncccn2)n1 (stereo not drawn)
tested-system: Plasmodium berghei
unit-of-measurement: %
measured-value: -29.1

molecule: Cc1cc(C)n(C2CCCN(C(=O)c3cccc(F)c3F)C2)n1 (stereo not drawn)
tested-system: Plasmodium berghei
unit-of-measurement: %
measured-value: 33

molecule: Cc1nc(N2CCC(O)(c3ccc(F)cc3)CC2)c2c(C)nn(C)c2n1
tested-system: Plasmodium berghei
unit-of-measurement: %
measured-value: 51.2

molecule: CC(C)c1nc(CN2CCOC(Cn3cncn3)C2)no1 (stereo not drawn)
tested-system: Plasmodium berghei
unit-of-measurement: %
measured-value: -15.5

molecule: N#CCCN(C(=O)CN1CCCC1c1cccs1)c1ccccc1F (stereo not drawn)
tested-system: Plasmodium berghei
unit-of-measurement: %
measured-value: 13.833

molecule: CCc1csc(CNC(=O)C(CC)n2cccn2)n1 (stereo not drawn)
tested-system: Plasmodium berghei
unit-of-measurement: %
measured-value: 19.8

molecule: CCC(C(=O)NCc1csc(N2CCOCC2)n1)n1cccn1 (stereo not drawn)
tested-system: Plasmodium berghei
unit-of-measurement: %
measured-value: 57.5

---

- Tested on: Plasmodium berghei
- method: Screen against P. berghei liver stage (PbLuc), transformed with Luciferase, at 10uM
- Type: functional, HepG2
- experimental-setup: tested at 10 uM
Among all 69,000 compounds or so, about 8,600 (12%) showed an effect of 50% or more. The sample as a whole holds a higher share of strong results than the screen did.
reported-metric: INHIBITION (%)

molecule: CCN1CCCCC1C(=O)N1CCN(C(=O)OC)CC1 (centres undefined)
unit-of-measurement: %
measured-value: 29.9
//
molecule: Cc1ccc(NC2CCN(C(=O)c3cccc4cccnc34)CC2)nn1
unit-of-measurement: %
measured-value: 11.9
//
molecule: COc1ccc(C)cc1C(C)NS(=O)(=O)c1ccc2c(c1)CCC(=O)N2 (centres undefined)
unit-of-measurement: %
measured-value: 54.5
//
molecule: COc1ccc(OC)c(C(C)NS(=O)(=O)c2cnn(C)c2)c1 (centres undefined)
unit-of-measurement: %
measured-value: 11.2
//
molecule: Cc1ncsc1-c1nnc(C2CCN(Cc3ccc(Cl)cc3)CC2)o1
unit-of-measurement: %
measured-value: 76.8
//
molecule: CC(=O)c1ccc(N2CCC3(CCC(=O)N(C4CC4)C3)CC2)nc1
unit-of-measurement: %
measured-value: -25.7
//
molecule: CCOc1nc2cnccc2n(CC(=O)NCc2ccco2)c1=O
unit-of-measurement: %
measured-value: 46.7
//
molecule: CC(=O)Nc1nc(-c2ccc(C)c(C)c2)c[nH]1
unit-of-measurement: %
measured-value: 7.22
//
molecule: O=c1cnc2ccccc2n1CCCn1ccnc1
unit-of-measurement: %
measured-value: 34
//
molecule: CC1(C)CC(CN2CCC3(CCC(=O)N(C4CCC4)C3)CC2)CCO1 (centres undefined)
unit-of-measurement: %
measured-value: 6.27
//
molecule: Cc1ncsc1-c1nnc(C2CCN(Cc3cccc(Cl)c3)CC2)o1
unit-of-measurement: %
measured-value: -6.3
//
molecule: Cn1cccc1C(=O)N1CCC2(CC1)COC(COc1ccccn1)C2 (centres undefined)
unit-of-measurement: %
measured-value: -8.19
//
molecule: NC(=O)C1CCN(c2nc3nccc(-c4ccccn4)c3c(=O)[nH]2)CC1
unit-of-measurement: %
measured-value: 2.37
//
molecule: Cn1cc(CC2CCN(C(=O)NCc3cccc(C(N)=O)c3)C2)cn1 (centres undefined)
unit-of-measurement: %
measured-value: -51.705
//
molecule: NC(=O)C1CCN(c2nccc(-c3c[nH]nc3C3CCCCC3)n2)CC1
unit-of-measurement: %
measured-value: 57.5
//
molecule: COc1ccc(C)cc1CCNS(=O)(=O)c1ccc2c(c1)CCC(=O)N2
unit-of-measurement: %
measured-value: 56.3
//
molecule: CCN1CCC(NC(=O)CN2CCCC2Cn2cc(C)cn2)CC1 (centres undefined)
unit-of-measurement: %
measured-value: 11.2
//
molecule: CC1(C)CC(C(=O)N2CCC3(CCC(=O)N(C4CC4)C3)CC2)CCO1 (centres undefined)
unit-of-measurement: %
measured-value: 53.3
//
molecule: Cc1ccsc1-c1nnc(C2CCN(Cc3ccc(F)cc3)CC2)o1
unit-of-measurement: %
measured-value: 68.2
//
molecule: CN(Cc1cccnc1)[C@@H]1CN(C(=O)c2ccno2)[C@@H]2CCCO[C@H]12
unit-of-measurement: %
measured-value: 50.3
//
molecule: CCc1noc(CN2CCN(C(=O)OC(C)(C)C)C(C)C2)n1 (centres undefined)
unit-of-measurement: %
measured-value: 20.4
//
molecule: Cc1ncc(CC(=O)N2CCC3(CCC(=O)N(CCO)C3)CC2)c(=O)[nH]1
unit-of-measurement: %
measured-value: 46.1
//
molecule: Fc1ccc(CCN2CCC(c3nnc(-c4cccnc4)o3)CC2)cc1
unit-of-measurement: %
measured-value: 35.3
//
molecule: Cc1cnn(CC(=O)N2CCC3(CCC(=O)N(C4CCCC4)C3)CC2)c1
unit-of-measurement: %
measured-value: 39.1
//
molecule: CCCn1cc(Cl)c(C(=O)N2C[C@@H](O)[C@H](Oc3ccccc3)C2)n1
unit-of-measurement: %
measured-value: -10.55
//
molecule: COCC(=O)N1C[C@H](N(C)Cc2cncnc2)[C@H]2OCCC[C@H]21
unit-of-measurement: %
measured-value: 64.7
//
molecule: CN(Cc1cncnc1)[C@H]1CN(C(=O)c2ccc[nH]2)[C@@H]2CCCO[C@@H]21
unit-of-measurement: %
measured-value: 58.4
//
molecule: CCN(CC)S(=O)(=O)NCCc1cc(C)ccc1OC
unit-of-measurement: %
measured-value: -12.9
//
molecule: CN(Cc1cccnc1)[C@@H]1CN(C(=O)c2ccco2)[C@@H]2CCCO[C@H]12
unit-of-measurement: %
measured-value: 3.17
//
molecule: COc1ccc(C)cc1CCNS(C)(=O)=O
unit-of-measurement: %
measured-value: -18
//
molecule: CN1CCN(c2nccc(-c3cncnc3C3CCCCC3)n2)CC1
unit-of-measurement: %
measured-value: 23.4
//
molecule: CCCOc1cc(CNC(=O)Nc2cccc(C(C)=O)c2)ccn1
unit-of-measurement: %
measured-value: 16.6
//
molecule: CCn1nc(C)c(-c2cncn2Cc2ccccc2CN(C)C)c1C
unit-of-measurement: %
measured-value: 34.1
//
molecule: COCC(=O)N1CCN(C(=O)NC(C)C)CC2(CC(=O)N(C)C2)C1 (centres undefined)
unit-of-measurement: %
measured-value: 45.2

---

- Test system: Plasmodium berghei
- method: Screen against P. berghei liver stage (PbLuc), transformed with Luciferase, at 10uM
- Assay type: functional, HepG2
- experimental-setup: tested at 10 uM
Out of some 69,000 compounds screened, about 8,600 (12%) showed an effect of 50% or more. Many of the other results were omitted from the sample, so strong results are more common in it than they were.

compound: O=C1CCC2(CCCN(Cc3ccccc3F)C2)N1CC1CC1 (stereo unspecified)
unit-of-measurement: %
INHIBITION: -19.6
//
compound: Cc1ccc(C(=O)N2CC[C@@H](N(C)C)[C@@H]2Cc2cnn(C)c2)cn1
unit-of-measurement: %
INHIBITION: 15.9
//
compound: CO[C@H]1CCN(C(=O)c2ccsc2)[C@@H]2CN(CC3CC3)C[C@H]12
unit-of-measurement: %
INHIBITION: 0.112
//
compound: Cc1nc(C2CCCCN2C(=O)c2ccccc2)ncc1C(=O)N(C)C (stereo unspecified)
unit-of-measurement: %
INHIBITION: 28.4
//
compound: CC1(C(=O)NCc2cccc(C(F)(F)F)c2)CCOCC1
unit-of-measurement: %
INHIBITION: 15.9
//
compound: CCCN1CCN(Cc2cc3cc(OCC)ccc3[nH]c2=O)CC1
unit-of-measurement: %
INHIBITION: 6.67
//
compound: CCOc1ccc2[nH]c(=O)c(CN3CCC(O)CC3)cc2c1
unit-of-measurement: %
INHIBITION: 20.2
//
compound: CC(C)n1ccnc1C1CCCN(c2nc3ccccc3s2)C1 (stereo unspecified)
unit-of-measurement: %
INHIBITION: 61.2
//
compound: Cc1ccc(C(=O)N2Cc3c(CN(C)C)nn(C)c3C2)cc1C
unit-of-measurement: %
INHIBITION: 14.6
//
compound: c1cnc(NCc2nnn3c2CN(CC2CC2)CCC3)nc1
unit-of-measurement: %
INHIBITION: 10.6
//
compound: CCOc1ccc(Cl)c(C(=O)N2CCCSCC2)n1
unit-of-measurement: %
INHIBITION: 18.2
//
compound: CC(=O)N[C@@H]1CN(C(=O)c2cnc3ccccc3c2)C[C@H]1O
unit-of-measurement: %
INHIBITION: 22
//
compound: O=C1COC2(CCN(Cc3ccoc3)CC2)CN1CCn1cccn1
unit-of-measurement: %
INHIBITION: 0.804
//
compound: CS(=O)(=O)NCCNC(=O)Cc1ccc(Br)s1
unit-of-measurement: %
INHIBITION: -62.1
//
compound: CCOC(=O)CC(c1ccc(OC)cc1)c1c(O)n[nH]c1C (stereo unspecified)
unit-of-measurement: %
INHIBITION: -14.9
//
compound: CSc1nccc(N2CCCC(c3nccn3C(C)C)C2)n1 (stereo unspecified)
unit-of-measurement: %
INHIBITION: 27.6
//
compound: O=C1COc2cc(C(=O)NS(=O)(=O)c3ccc(F)cc3F)ccc2N1
unit-of-measurement: %
INHIBITION: 33.3
//
compound: Cc1ccnc(N2CCCC(c3nccn3C(C)C)C2)n1 (stereo unspecified)
unit-of-measurement: %
INHIBITION: 15.8
//
compound: COc1ccc(CNC2CCc3ncnn3C2)cc1OCCCC#N (stereo unspecified)
unit-of-measurement: %
INHIBITION: 28.7
//
compound: CC(C)n1ccnc1C1CCCN(c2ccncc2F)C1 (stereo unspecified)
unit-of-measurement: %
INHIBITION: 32.1
//
compound: c1coc(CN2C[C@@H]3OCCN(CCN4CCCC4)[C@@H]3C2)c1
unit-of-measurement: %
INHIBITION: 36.4
